A set of compounds tested on VEGFR2 (Rattus norvegicus, UniProt O08775), with measured log10 IC50:
Lab note - IC50 converted to log10 from values in nM.

{"columns": ["COMPOUND", "MEASURED ENDPOINT", "RECORDED MEASUREMENT"],
 "data": [
  ["O=S(=O)(NCCO)c1ccc(Nc2nc(Nc3ccc4[nH]ncc4c3)c3cnoc3n2)cc1", "log10 IC50", 3.00]
]}

Tell me its log10 IC50 on VEGFR2 (Rattus norvegicus, UniProt O08775): CC(C)C(CO)Nc1nc(Nc2ccc(S(=O)(=O)NCCO)cc2)nc2[nH]ncc12 (centres unmarked) 4.88

Tell me log10 IC50 of O=S(=O)(NCCO)c1ccc(Nc2nc(Nc3ccc4[nH]ncc4c3)c3cn[nH]c3n2)cc1 when tested on VEGFR2 (Rattus norvegicus, UniProt O08775). 3.00

Give reported log10 IC50 for NS(=O)(=O)c1ccc(Nc2nc(Nc3ccc(S(N)(=O)=O)cc3)c3cnoc3n2)cc1 (VEGFR2 (Rattus norvegicus, UniProt O08775)) 3.39

Find log10 IC50 for NS(=O)(=O)c1ccc(Nc2nc(Nc3ccccc3)nc3[nH]ncc23)cc1 on VEGFR2 (Rattus norvegicus, UniProt O08775) and write it down. 3.63

Look up and report log10 IC50, with VEGFR2 (Rattus norvegicus, UniProt O08775) as system, for O=S(=O)(NCCO)c1ccc(Nc2nc(Nc3ccc(S(=O)(=O)NCCO)cc3)c3cn[nH]c3n2)cc1 2.52

====

# Tested on: HeLa cervical adenocarcinoma
# TEST DETAILS: Cell Proliferation Inhibition Assay (14C-thymidine incorporation), HeLa
# Assay type: cell-based
# TEST SETTINGS: Homo sapiens
MEASURED ENDPOINT: IC50 (µM)
Please give a number only; it is taken to be in µM.

Worked cases, answers included:
{"columns": ["SMILES DATA", "EXPERIMENTAL TARGET", "IC50, µM"],
 "data": [
  ["NS(=O)(=O)c1ccc(Nc2nc(Nc3ccccn3)c3cnoc3n2)cc1", "HeLa cervical adenocarcinoma", 100],
  ["NS(=O)(=O)c1cccc(Nc2nc(Nc3cccc(S(N)(=O)=O)c3)c3cn[nH]c3n2)c1", "HeLa cervical adenocarcinoma", 100]
]}

Tell me its IC50 given NS(=O)(=O)c1ccc(Nc2nc(Nc3ccc(S(N)(=O)=O)cc3)c3cn[nH]c3n2)cc1 as the entry. 100

Query IC50 for O=S(=O)(NCCO)c1ccc(Nc2nc(Nc3ccc(S(=O)(=O)NCCO)cc3)c3cnn(C4CCCCC4)c3n2)cc1 100

Kindly indicate its recorded IC50. Item: O=S(=O)(NCCO)c1ccc(Nc2nc(Nc3ccccc3)c3cnoc3n2)cc1 25

====

Target or system UniProt P06493: recorded IC50 listed per item.
Sequence (P06493 whole entry): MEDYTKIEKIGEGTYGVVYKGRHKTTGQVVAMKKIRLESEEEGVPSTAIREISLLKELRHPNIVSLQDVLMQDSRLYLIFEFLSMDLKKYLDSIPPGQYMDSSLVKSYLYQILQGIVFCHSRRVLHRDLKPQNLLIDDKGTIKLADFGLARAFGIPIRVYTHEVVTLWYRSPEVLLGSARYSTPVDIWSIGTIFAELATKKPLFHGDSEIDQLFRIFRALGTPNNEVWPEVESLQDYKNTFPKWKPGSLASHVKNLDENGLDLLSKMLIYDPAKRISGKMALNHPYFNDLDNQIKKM
Sequence (P14635 whole entry partner): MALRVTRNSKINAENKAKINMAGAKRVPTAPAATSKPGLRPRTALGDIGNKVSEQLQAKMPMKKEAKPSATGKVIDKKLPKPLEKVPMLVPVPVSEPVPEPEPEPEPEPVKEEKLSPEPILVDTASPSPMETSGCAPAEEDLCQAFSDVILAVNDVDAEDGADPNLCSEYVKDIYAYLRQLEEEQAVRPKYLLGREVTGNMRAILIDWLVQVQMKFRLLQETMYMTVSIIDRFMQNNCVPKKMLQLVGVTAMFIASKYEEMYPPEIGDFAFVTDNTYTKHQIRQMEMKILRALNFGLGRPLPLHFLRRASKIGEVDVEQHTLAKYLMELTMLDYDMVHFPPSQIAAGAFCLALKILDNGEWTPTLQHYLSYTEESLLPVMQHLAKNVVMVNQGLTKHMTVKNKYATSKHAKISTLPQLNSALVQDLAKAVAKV
The reply should be a number in nM, with the unit left off.

{"columns": ["SMILES DATA", "EXPERIMENTAL TARGET", "RECORDED MEASUREMENT"],
 "data": [
  ["O=S(=O)(NCCO)c1ccc(Nc2nc(Nc3ccc4[nH]ncc4c3)c3cn[nH]c3n2)cc1", "UniProt P06493", 102],
  ["c1cc2[nH]ncc2cc1Nc1nc(Nc2ccc3[nH]ncc3c2)c2cn[nH]c2n1", "UniProt P06493", 145],
  ["NS(=O)(=O)c1ccc(Nc2nc(Nc3ccc(S(N)(=O)=O)cc3)c3cn[nH]c3n2)cc1", "UniProt P06493", 132]
]}

Read the next record carefully.
State IC50 on UniProt P06493. Entry: c1nc2ccc(Nc3nc(Nc4ccc5ncsc5c4)c4cn[nH]c4n3)cc2s1 5000

Each recorded value in this set is attributed to patent US8314234B2.
